B1: SPSB1 (parent)
chain: DMRDPTYRPLKQELQGLDYCKPTR

# Variants of: B1
# method description: protein stability index of a GFP-peptide fusion (GPS, HEK-293T) (PSI 1-6); higher = more stable;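 further: lentivirally expressed fusions sorted by FACS into six bins by GFP to DsRed ratio, PSI derived from sequencing read proportions per bin multiplied by bin number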
# stated conditions: c terminus: a fixed tail appended
property label: protein stability index
One number for each entry.

Output measured protein stability index for this item: DYRDPTYRPLKQELQGLDYCKPTR [M2Y]
2.72

State its protein stability index: DMRDPTYRFLKQELQGLDYCKPTR [P9F]
3.26

Given DERDPTYRPLKQELQGLDYCKPTR [M2E] , respond with its protein stability index.
3.51

Supply measured protein stability index of DMRDPTYSPLKQELQGLDYCKPTR [R8S] in your reply.
2.68

Please look at this variant and report its protein stability index: DMRDPTYRPLKQELQGLDYCKDTR [P22D]
4.68

Report protein stability index for each item below.
1. DMRDPTYRPLKQELQGLDYCKRTR [P22R]
2. DMRDPTYRPLKQELQGLDYCWPTR [K21W]
3. DMRDPTYRPLKQEMQGLDYCKPTR [L14M]
4. DMRDPTYAPLKQELQGLDYCKPTR [R8A]
5. DMRDPTYRPLKQELGGLDYCKPTR [Q15G]

4.4
1.98
3.68
3.8
2.25

Please look at the items below and tell me protein stability index for each one, in order.
1. DMRDPTYRPLKPELQGLDYCKPTR [Q12P]
2. DMRDPTYFPLKQELQGLDYCKPTR [R8F]
3. DMRDPTYRQLKQELQGLDYCKPTR [P9Q]
4. DMRDPTYRPLKDELQGLDYCKPTR [Q12D]
5. DMFDPTYRPLKQELQGLDYCKPTR [R3F]
6. DMRDPTYRPLKQELIGLDYCKPTR [Q15I]
7. DMRDPTYRPLKQELEGLDYCKPTR [Q15E]

1. 3.04
2. 2.6
3. 2.72
4. 3.45
5. 2.92
6. 3.05
7. 3.87

List the reported protein stability index of each variant below.
1. DMRDPTYRPLKQELQGLDYQKPTR [C20Q]
2. DMRDPTYRPLKQELQGLHYCKPTR [D18H]
3. DMRDPTRRPLKQELQGLDYCKPTR [Y7R]
4. DMRDPTYRPLNQELQGLDYCKPTR [K11N]
5. DMRDPTYRPLWQELQGLDYCKPTR [K11W]
6. DMRDPTYRPLKQELQGLSYCKPTR [D18S]

2.8
3.73
2.51
4.04
2.5
3.48

Take each entry in turn and give its protein stability index.
1. DMRDPTYRPLKQELQGLDYCKGTR [P22G]
2. DMRDPTYRPLKIELQGLDYCKPTR [Q12I]

1: 4.1; 2: 2.35
